# Tested on: An. gambiae females
# ASSAY PROCEDURE: Survival assays of An. gambiae females after compound exposure (acute 48 h and long-term)
# Assay type: in vivo, Anopheles gambiae
# CONDITION PARAMETERS: 1 mmol/m2, 60 minutes exposure, 48 h after exposure
# if value of proportionate survival relative to controls reaches 1, tag 1.0; if it stays below, tag 0.0

Completed entries (count: 2):
[
  {
    "MOLECULE": "CCCCCCCCCCCCC1=C(OC(C)=O)C(=O)c2ccccc2C1=O",
    "CLASSIFICATION": 1.0
  },
  {
    "MOLECULE": "CCCCCCCCCCOc1cc2c(O)c(C(=O)OCC)cnc2cc1OCC [DEC, decoquinate]",
    "CLASSIFICATION": 1.0
  }
]

[Q] Entry CC1(C)C(C=C(Cl)Cl)C1C(=O)OCc1cccc(Oc2ccccc2)c1 (stereo not drawn) : is its proportionate survival relative to controls no less than 1?
[A] 0.0

###

# Test system: An. gambiae females
# ASSAY PROCEDURE: Survival assays of An. gambiae females after compound exposure (acute 48 h and long-term)
# Assay type: in vivo, Anopheles gambiae
# CONDITION PARAMETERS: 1 mmol/m2, 60 minutes exposure, 48 h after exposure
TEST READOUT: proportionate survival relative to controls
Enter the number alone.

Take a look at these entries with their results.
[
  {
    "MOLECULE": "CCc1nc(N)nc(N)c1-c1ccc(Cl)cc1 [PYR, pyrimethamine]",
    "QUANTITATIVE RESULT": 1.000
  },
  {
    "MOLECULE": "O=C1C(O)=C([C@H]2CC[C@H](c3ccc(Cl)cc3)CC2)C(=O)c2ccccc21 [ATQ, atovaquone]",
    "QUANTITATIVE RESULT": 0.975
  }
]

We next turn to a different molecule, shown below.
Per the reported An. gambiae females data, CC1(C)CNC(=NN=C(/C=C/c2ccc(C(F)(F)F)cc2)/C=C/c2ccc(C(F)(F)F)cc2)NC1 [HYD, hydramethylnon] has proportionate survival relative to controls of 0.976
